Target or test system: GABA-A receptor; anion channel
Protocol: Displacement of [3H]flunitrazepam from GABA-A benzodiazepine receptor in synaptic membranes of rat cerebral cortex
Observation type: pIC50
To interpret pIC50, take it as minus log10 of a concentration measured in moles per litre.

// known answers, use as guide
Molecule | Recorded number
Cc1n[nH]c2c1N=C(c1ccc(Cl)cc1)CNC2=O | 5.00
Cc1n[nH]c2c1N=C(c1ccc(Br)cc1)CNC2=O | 4.65
CCn1nc(C)c2c1C(c1ccccc1)=NCC(=O)N2 | 6.17
Cc1n[nH]c2c1N=C(c1ccccc1)CNC2=O | 5.36
CNC1=Nc2ccc(Cl)cc2C(c2ccccc2)=[N+]([O-])C1 [CHLORDIAZEPOXIDE] | 6.04

Give the measured pIC50 of Cc1n[nH]c2c1N=C(c1ccc([N+](=O)[O-])cc1)CNC2=O .
4.52

Given the entry COc1ccc(C2=Nc3c(C)n[nH]c3C(=O)NC2)cc1 , report its measured pIC50.
4.33
